Target: T1, rat calcitonin receptor (rat, UniProt P32214 25-516)
T1 construct: whole, on cells; Used as membranes prepared from the transfected cells (Assay VIII); also called rCTR; rat calcitonin (a) receptor
T1 sequence (looked up): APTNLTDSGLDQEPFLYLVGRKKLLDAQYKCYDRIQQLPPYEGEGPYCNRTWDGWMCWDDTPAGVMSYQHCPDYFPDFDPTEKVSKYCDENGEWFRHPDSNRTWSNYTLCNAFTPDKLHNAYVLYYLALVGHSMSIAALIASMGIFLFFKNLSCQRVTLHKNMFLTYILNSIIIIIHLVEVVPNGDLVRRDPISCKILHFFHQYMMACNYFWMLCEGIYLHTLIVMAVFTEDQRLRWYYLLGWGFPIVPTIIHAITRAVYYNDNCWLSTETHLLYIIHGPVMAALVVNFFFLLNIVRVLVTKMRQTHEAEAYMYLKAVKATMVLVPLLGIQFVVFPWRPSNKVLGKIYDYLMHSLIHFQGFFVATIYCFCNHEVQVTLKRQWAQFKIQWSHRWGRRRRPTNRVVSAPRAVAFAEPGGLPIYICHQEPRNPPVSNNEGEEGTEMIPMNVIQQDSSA
Experiment: SPA competition binding, displacement of 125I-calcitonin from membranes of BHK tk'ts 13 cells transfected with rat calcitonin receptor (Assay VIII)
Numbered stars: 1 amine (or outer) side, 2 acyl side, 3 side chain; on linkers, the order of the positions; unused ones are H or OH. Bridge positions count the residues as written; N and C are the ends. Side chains are listed from the residue outwards. Ends that are not written are not given here. * marks the point of attachment. C20 diacid = O=C(O)CCCCCCCCCCCCCCCCCCC(=O)*; γGlu = O=C(O)[C@H](CCC(=O)[*:2])N[*:1]
endpoint label: IC50 (nM)
Kindly provide the numeric value in nM only, without the unit symbol.

# example entries with known answers
K([γGlu-C20 diacid])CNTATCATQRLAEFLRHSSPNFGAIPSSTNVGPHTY-NH2 (disulfide 2-7, not restated for each compound)
5.43
K([γGlu-γGlu-C20 diacid])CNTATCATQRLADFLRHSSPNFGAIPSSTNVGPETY-NH2 (disulfide 2-7, not restated for each compound)
31.9
{C20 diacid-γGlu}-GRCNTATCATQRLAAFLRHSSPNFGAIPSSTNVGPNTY-NH2 (disulfide 3-8, not restated for each compound)
56.3
K([γGlu-γGlu-C20 diacid])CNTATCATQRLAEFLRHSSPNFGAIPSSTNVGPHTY-NH2 (disulfide 2-7 (inferred), not restated for each compound)
21
K([γGlu-γGlu-C20 diacid])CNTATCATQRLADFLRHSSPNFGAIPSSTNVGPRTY-NH2 (disulfide 2-7, not restated for each compound; also called compound 130)
223

[Q] Tell me the measured IC50 of KCNTATCATQRLADFLRHSSPNFGAIPSSTNVGSRTY-NH2 (disulfide 2-7) [[Asp14,Arg17,Pro21,Pro27,Arg35]-h-amylin] , please.
[A] 30.9

[Q] Tell me the measured IC50 of K([γGlu-γGlu-C20 diacid])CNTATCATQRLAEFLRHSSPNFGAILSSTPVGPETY-NH2 (disulfide 2-7 (inferred), not restated for each compound) , please.
[A] 33.5
